# assay-overview: Phase 1 DDI study: plasma PK of encorafenib
# Type: in vivo
# condition-summary: human, oral, AUClast, GM (CV%), encorafenib single dose (day 1)
endpoint: AUC(0-t) (ng·h/mL)

* COC(=O)N[C@@H](C)CNc1nccc(-c2cn(C(C)C)nc2-c2cc(Cl)cc(NS(C)(=O)=O)c2F)n1 | 25900

----------
# assay-overview: Phase 1 DDI study: plasma PK of encorafenib
# Type: in vivo
# condition-summary: human, oral, AUClast, GM (CV%), encorafenib steady state (day 14)
endpoint: AUC(0-t)

• COC(=O)N[C@@H](C)CNc1nccc(-c2cn(C(C)C)nc2-c2cc(Cl)cc(NS(C)(=O)=O)c2F)n1 = 13100 ng·h/mL
